All values here come from the Human Domainome abundance scans (Beltran et al. 2025).

B1: Ventral anterior homeobox 1, residues 102 to 157; numbered along this chain, Q5SQQ9 (parent)
chain: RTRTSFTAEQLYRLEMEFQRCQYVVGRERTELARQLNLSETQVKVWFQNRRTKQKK

- Variants of: B1
- method: abundance fitness (aPCA) (normalised: wild type 0, dead -1); higher = more abundant; growth selection in yeast, the domain comes from the species named
- test.settings: Homo sapiens
Could you label it fulfilled if measured abundance fitness is -0.2 or higher, and not fulfilled otherwise?

Challenge: Form field: abundance fitness at least -0.2? Entry: R20S
Response given: fulfilled

Challenge: Hi, just wondering whether V45P shows abundance fitness of -0.2 or higher.
Response given: not fulfilled

Challenge: Determine whether this variant has abundance fitness no lower than -0.2: Q19N
Response given: fulfilled

Challenge: Record N49D ; criterion: abundance fitness no lower than -0.2. Met?
Response given: fulfilled

Challenge: Does V24R have a reported abundance fitness of at least -0.2?
Response given: not fulfilled

Challenge: abundance fitness >= -0.2 for L36E ?
Response given: not fulfilled

Challenge: Determine whether measured abundance fitness meets or exceeds -0.2 for Q22P
Response given: fulfilled

Challenge: Please tell me: is the variant L38M at or over -0.2 in terms of abundance fitness?
Response given: fulfilled

Challenge: Please tell me: is the variant V24E at or over -0.2 in terms of abundance fitness?
Response given: not fulfilled

Challenge: Given the entry T2G , answer whether its abundance fitness meets or surpasses -0.2.
Response given: fulfilled

Challenge: Textbook exercise: given the entry E31T , state whether its abundance fitness is greater than or equal to -0.2.
Response given: not fulfilled

Challenge: Could you tell me if the measured abundance fitness of T30H reaches -0.2 or more?
Response given: not fulfilled

Challenge: Identify whether the reported abundance fitness of the following variant is -0.2 or greater: K44P
Response given: not fulfilled

Challenge: Does the variant T30G have recorded abundance fitness that is -0.2 or more?
Response given: not fulfilled

Challenge: Please indicate if the recorded abundance fitness for F18M meets or exceeds -0.2.
Response given: not fulfilled

Challenge: Determine whether measured abundance fitness meets or exceeds -0.2 for K44A
Response given: fulfilled

Challenge: Please indicate if the recorded abundance fitness for Y12L meets or exceeds -0.2.
Response given: fulfilled

Challenge: Determine whether measured abundance fitness meets or exceeds -0.2 for T41I
Response given: not fulfilled

Challenge: Could you verify whether the entry T7C shows abundance fitness of no less than -0.2?
Response given: not fulfilled

Challenge: Could you verify whether the entry Y23A shows abundance fitness of no less than -0.2?
Response given: fulfilled

Challenge: Check this variant for abundance fitness at or above -0.2: V45N
Response given: not fulfilled

Challenge: Given the entry A33N , answer whether its abundance fitness meets or surpasses -0.2.
Response given: not fulfilled

Challenge: Decide: is the reported value of abundance fitness for T7H equal to or greater than -0.2?
Response given: not fulfilled

Challenge: API: above_or_equal(metric=abundance fitness, cutoff=-0.2) for item Q19M
Response given: fulfilled

Challenge: Hi team, for C21V , is the recorded abundance fitness at or above -0.2?
Response given: fulfilled

Challenge: Assess whether reported abundance fitness for E28N sits at -0.2 or higher.
Response given: not fulfilled

Challenge: Could you please find out whether R51N has abundance fitness that meets -0.2 or exceeds it?
Response given: fulfilled

Challenge: Textbook exercise: given the entry R50G , state whether its abundance fitness is greater than or equal to -0.2.
Response given: not fulfilled

Challenge: Would you say G26C shows abundance fitness at minimum -0.2?
Response given: not fulfilled

Challenge: Please indicate if the recorded abundance fitness for S39Y meets or exceeds -0.2.
Response given: not fulfilled

Challenge: # bool: abundance fitness of T52D >= -0.2
Response given: fulfilled

Challenge: Is the recorded value of abundance fitness equal to or greater than -0.2 for this variant? F47C
Response given: not fulfilled

Challenge: Please indicate if the recorded abundance fitness for V25G meets or exceeds -0.2.
Response given: fulfilled

Challenge: Determine whether measured abundance fitness meets or exceeds -0.2 for Q22K
Response given: fulfilled

Challenge: Is it the case that Q19F has abundance fitness reaching or exceeding -0.2?
Response given: not fulfilled

Challenge: Test whether the variant K56C records abundance fitness of -0.2 or higher.
Response given: fulfilled

Challenge: Reported abundance fitness reaches at least -0.2 for Y23N ?
Response given: fulfilled

Challenge: Say whether L14M shows abundance fitness of -0.2 or more.
Response given: not fulfilled

Challenge: Confirm if abundance fitness reported for the variant R20W is -0.2 or above.
Response given: not fulfilled

Challenge: Reported abundance fitness reaches at least -0.2 for N37V ?
Response given: not fulfilled

Challenge: Check this variant for abundance fitness at or above -0.2: T52V
Response given: fulfilled

Challenge: Please indicate if the recorded abundance fitness for Y12S meets or exceeds -0.2.
Response given: fulfilled

Challenge: # check: abundance fitness of E40Q is greater than or equal to -0.2
Response given: not fulfilled

Challenge: Could you tell me if the measured abundance fitness of A8E reaches -0.2 or more?
Response given: fulfilled

Challenge: Please tell me: is the variant E9C at or over -0.2 in terms of abundance fitness?
Response given: not fulfilled

Challenge: Decide: is the reported value of abundance fitness for C21M equal to or greater than -0.2?
Response given: not fulfilled

Challenge: Is it the case that V25T has abundance fitness reaching or exceeding -0.2?
Response given: fulfilled

Challenge: Form field: abundance fitness at least -0.2? Entry: E15H
Response given: not fulfilled

Challenge: Please indicate if the recorded abundance fitness for E28G meets or exceeds -0.2.
Response given: not fulfilled

Challenge: Is abundance fitness for E17V at or above -0.2?
Response given: not fulfilled

Challenge: Hello, I need to know if V25S has measured abundance fitness not below -0.2. Thanks!
Response given: fulfilled

Challenge: Reported abundance fitness reaches at least -0.2 for G26H ?
Response given: not fulfilled

Challenge: State whether the measured abundance fitness reaches -0.2, counting equality as reaching it, for L11W
Response given: not fulfilled

Challenge: Say whether Q42L shows abundance fitness of -0.2 or more.
Response given: fulfilled

Challenge: Record L11H ; criterion: abundance fitness no lower than -0.2. Met?
Response given: fulfilled

Challenge: Reported abundance fitness at or above -0.2? E40I
Response given: not fulfilled

Challenge: Quick check: does E9M have abundance fitness greater than or equal to -0.2?
Response given: not fulfilled

Challenge: Could you tell me if the measured abundance fitness of N49C reaches -0.2 or more?
Response given: not fulfilled

Challenge: # check: abundance fitness of F6N is greater than or equal to -0.2
Response given: not fulfilled

Challenge: Hello, I need to know if T41H has measured abundance fitness not below -0.2. Thanks!
Response given: fulfilled

Challenge: Can E15A be said to have abundance fitness at or above -0.2?
Response given: not fulfilled

Challenge: Does K56Q have a reported abundance fitness of at least -0.2?
Response given: fulfilled

Challenge: Hello, I need to know if T52F has measured abundance fitness not below -0.2. Thanks!
Response given: not fulfilled

Challenge: Does K53M have a reported abundance fitness of at least -0.2?
Response given: fulfilled

Challenge: # bool: abundance fitness of E31S >= -0.2
Response given: not fulfilled

Challenge: Check the entry V24P : does abundance fitness equal or exceed -0.2?
Response given: fulfilled

Challenge: Given the entry L14W , answer whether its abundance fitness meets or surpasses -0.2.
Response given: not fulfilled

Challenge: Exam item: decide whether the reported abundance fitness for K44E is at least -0.2.
Response given: fulfilled

Challenge: // inclusive: abundance fitness at least -0.2? input: E15R
Response given: not fulfilled

Challenge: Hello, I need to know if Y23W has measured abundance fitness not below -0.2. Thanks!
Response given: not fulfilled

Challenge: Tell me whether abundance fitness is at least -0.2 here: M16K
Response given: not fulfilled

Challenge: Threshold query (abundance fitness >= -0.2) on Q35F
Response given: not fulfilled

Challenge: Test whether the variant C21R records abundance fitness of -0.2 or higher.
Response given: not fulfilled

Challenge: Check if abundance fitness >= -0.2 (inclusive). Item: Q19R
Response given: not fulfilled

Challenge: Identify whether the reported abundance fitness of the following variant is -0.2 or greater: E17L
Response given: not fulfilled

Challenge: Could you please find out whether Q19H has abundance fitness that meets -0.2 or exceeds it?
Response given: not fulfilled

Challenge: Entry Q48K : is its abundance fitness no less than -0.2?
Response given: fulfilled

Challenge: Item T2E with abundance fitness of -0.2 or above?
Response given: fulfilled

Challenge: Decide: abundance fitness of R3Y >= -0.2?
Response given: fulfilled

Challenge: Reported abundance fitness at or above -0.2? N37T
Response given: not fulfilled

Challenge: Does abundance fitness meet or surpass -0.2 for V43W ?
Response given: not fulfilled

Challenge: API: above_or_equal(metric=abundance fitness, cutoff=-0.2) for item R1C
Response given: fulfilled

Challenge: Is abundance fitness at least -0.2? Consider E17R
Response given: not fulfilled

Challenge: Tell me whether abundance fitness is at least -0.2 here: Q48D
Response given: fulfilled

Challenge: Please indicate if the recorded abundance fitness for L38G meets or exceeds -0.2.
Response given: not fulfilled

Challenge: Answer whether abundance fitness of T52C is greater than or equal to -0.2.
Response given: fulfilled

Challenge: abundance fitness >= -0.2 for Q19I ?
Response given: fulfilled
